Reported koff values for the following binders.
Target: T1, cyno FcRn/b2M (cyno, UniProt Q8SPV9 24-297; Q8SPW0 21-119, biotinylated)
T1 construct: bought recombinant biotinylated protein (Immunitrack ITF05 or ACRO FCM-C82W5); also called cFcRn; cFcRn/cb2M
T1 sequence (Q8SPV9 24-297 limits assumed, chain 1 of 2): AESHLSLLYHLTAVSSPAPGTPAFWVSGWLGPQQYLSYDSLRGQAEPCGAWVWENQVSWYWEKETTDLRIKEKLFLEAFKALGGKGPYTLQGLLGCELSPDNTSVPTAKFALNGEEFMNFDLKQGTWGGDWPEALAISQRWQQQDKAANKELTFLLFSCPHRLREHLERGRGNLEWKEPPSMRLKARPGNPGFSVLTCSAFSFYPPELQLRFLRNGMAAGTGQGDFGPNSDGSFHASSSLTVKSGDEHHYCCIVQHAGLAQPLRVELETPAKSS
T1 sequence (Q8SPW0 21-119 limits assumed, chain 2 of 2): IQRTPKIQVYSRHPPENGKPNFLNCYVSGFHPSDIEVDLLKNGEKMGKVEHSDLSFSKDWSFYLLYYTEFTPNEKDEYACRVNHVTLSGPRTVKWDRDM
Experiment: SPR pH 7.4;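 further: surface plasmon resonance kinetics, periplasmic extracts diluted 1:10 flowed over immobilized target at 25 °C, 120 s association then 600–3600 s dissociation, buffer with 150 mM NaCl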

Binder	Unit symbol	koff
T0263018B11 G54E (VHH, name in Kabat numbering, FLAG3-His6 tagged) VHH: EVQLVESGGGVVQPGGSLRLSCAASGFTFSSYAMYWVRQAPGKGLEWVSAISSGEGSTDYADSVKGRFTISRDNSKNTLYLQMNSLRPEDTALYYCAADTLYTSLTWYSYWGQGTLVTVSS	s⁻¹	0.062
T0263018B11 S31K (VHH, name in Kabat numbering, FLAG3-His6 tagged) VHH: EVQLVESGGGVVQPGGSLRLSCAASGFTFSKYAMYWVRQAPGKGLEWVSAISSGGGSTDYADSVKGRFTISRDNSKNTLYLQMNSLRPEDTALYYCAADTLYTSLTWYSYWGQGTLVTVSS	s⁻¹	0.044
T0263018B11 W100cV (VHH, name in Kabat numbering, FLAG3-His6 tagged) VHH: EVQLVESGGGVVQPGGSLRLSCAASGFTFSSYAMYWVRQAPGKGLEWVSAISSGGGSTDYADSVKGRFTISRDNSKNTLYLQMNSLRPEDTALYYCAADTLYTSLTVYSYWGQGTLVTVSS	s⁻¹	0.18
T0263018B11 S56L (VHH, name in Kabat numbering, FLAG3-His6 tagged) VHH: EVQLVESGGGVVQPGGSLRLSCAASGFTFSSYAMYWVRQAPGKGLEWVSAISSGGGLTDYADSVKGRFTISRDNSKNTLYLQMNSLRPEDTALYYCAADTLYTSLTWYSYWGQGTLVTVSS	s⁻¹	0.013
